- assay-remarks: Selectivity index, ratio of IC50 for cytotoxicity against African green monkey Vero cells to IC50 for antiplasmodial activity against CQ-resistance Plasmodium falciparum W2 infected in A+ human blood assessed as reduction in parasite growth measured after 72 hrs by HRP2 ELISA
- Assay type: toxicity, cell-based
- conditions: read-out: Selectivity Index
quantity-name: selectivity ratio at 72 h

Cc1cc(NCCCCCCNc2ccnc3cc(Cl)ccc23)n2ncnc2n1; 1110
Cc1cc(NCCCNc2ccnc3cc(Cl)ccc23)n2ncnc2n1; 369
Cc1cc(NCCCCNc2ccnc3cc(Cl)ccc23)n2ncnc2n1; 596
Cc1cc(NCCCCCCCCNc2ccnc3cc(Cl)ccc23)n2ncnc2n1; 1750

###

- Tested on: Plasmodium falciparum
- assay-remarks: Antiplasmodial activity against CQ-susceptible Plasmodium falciparum 3D7 infected in A+ human blood assessed as reduction in parasite growth measured after 72 hrs by HRP2 ELISA
- Type: functional, organism-based
- conditions: 3D7, Blood
One threshold, 9 µM, splits the recorded IC50 values: lower ones are True, equal or higher ones are False.

Cc1cc(NCCCNc2cc(C)nc3ncnn23)n2ncnc2n1; False
Cc1cc(NCCNc2cc(C)nc3ncnn23)n2ncnc2n1; False
Cc1cc(NCCCCNc2cc(C)nc3ncnn23)n2ncnc2n1; False
Cc1cc(NCCCNc2ccnc3cc(Cl)ccc23)n2ncnc2n1; True
Cc1cc(N2CCN(c3ccnc4cc(Cl)ccc34)CC2)n2ncnc2n1; False
Cc1cc(NCCCCCCCCNc2ccnc3cc(Cl)ccc23)n2ncnc2n1; True
Cc1cc(NCCCCCCNc2cc(C)nc3ncnn23)n2ncnc2n1; False
Cc1cc(NCCCCCCCCNc2cc(C)nc3ncnn23)n2ncnc2n1; False
Cc1cc(NCCCCCCNc2ccnc3cc(Cl)ccc23)n2ncnc2n1; True
Cc1cc(NCCCCNc2ccnc3cc(Cl)ccc23)n2ncnc2n1; True

###

# key: entry, value: IC50
- assay-remarks: Cytotoxicity against African green monkey Vero cells
- Assay type: toxicity, cell-based
- conditions: African green monkey (Chlorocebus sabaeus)
quantity-name: IC50

Cc1cc(NCCCCCCNc2ccnc3cc(Cl)ccc23)n2ncnc2n1; 311 µM
Cc1cc(NCCCCCCCCNc2ccnc3cc(Cl)ccc23)n2ncnc2n1; 351 µM
Cc1cc(NCCCNc2ccnc3cc(Cl)ccc23)n2ncnc2n1; 181 µM
Cc1cc(NCCCCNc2ccnc3cc(Cl)ccc23)n2ncnc2n1; 250 µM

###

- assay-remarks: Selectivity index, ratio of IC50 for cytotoxicity against African green monkey Vero cells to IC50 for antiplasmodial activity against CQ-susceptible Plasmodium falciparum 3D7 infected in A+ human blood assessed as reduction in parasite growth measured after 72 hrs by HRP2 ELISA
- Type: toxicity, cell-based
- conditions: read-out: Selectivity Index
# key: entry, value: selectivity ratio at 72 h
quantity-name: selectivity ratio at 72 h

Cc1cc(NCCCCNc2ccnc3cc(Cl)ccc23)n2ncnc2n1; 927
Cc1cc(NCCCNc2ccnc3cc(Cl)ccc23)n2ncnc2n1; 291
Cc1cc(NCCCCCCNc2ccnc3cc(Cl)ccc23)n2ncnc2n1; 1040
Cc1cc(NCCCCCCCCNc2ccnc3cc(Cl)ccc23)n2ncnc2n1; 2060
